From: PubChem BioAssay AID1963833

System: 883617-216-R-J1-PDC complex spheroid viability;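 note: spheroids exposed to compounds for seven days before readout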
Run description: Anticancer human tumor 883617-216-R-J1-PDC patient-derived bladder carcinoma cell line growth inhibition [POLQ]
Protocol conditions: curve of first compound; second compound 0.0316 µM
Collected IC50 values appear next to each entry.

Cn1ncnc1[C@H]1c2n[nH]c(=O)c3cc(F)cc(c23)N[C@@H]1c1ccc(F)cc1 + Nc1ccc(C#CCN(C(=O)Cc2ncc(C(F)(F)F)cc2C(F)(F)F)c2ccc(F)cc2)nn1 = > 0.1 µM
CC(=O)O[C@H]1C(=O)[C@@]2(C)[C@H]([C@H](OC(=O)c3ccccc3)[C@]3(O)C[C@H](OC(=O)[C@H](O)[C@@H](NC(=O)c4ccccc4)c4ccccc4)C(C)=C1C3(C)C)[C@]1(OC(C)=O)CO[C@@H]1C[C@@H]2O + COC1C(OC(N)=O)C(O)C(Oc2ccc3c(O)c(NC(=O)c4ccc(O)c(CC=C(C)C)c4)c(=O)oc3c2C)OC1(C)C = < 0.00949 µM

Query :: Quick one: IC50 for CC1COCCN1c1cc(C2(S(C)(=N)=O)CC2)nc(-c2ccnc3[nH]ccc23)n1 (stereo unspecified) + Nc1ccc(C#CCN(C(=O)Cc2ncc(C(F)(F)F)cc2C(F)(F)F)c2ccc(F)cc2)nn1 ?
Result :: 5.98 µM

Query :: # IC50 lookup, item COc1cc2cc(C(=O)CCC(=O)O)sc2cc1OC + Nc1ccc(C#CCN(C(=O)Cc2ncc(C(F)(F)F)cc2C(F)(F)F)c2ccc(F)cc2)nn1
Result :: > 10 µM

Query :: Need IC50 of CC1COCCN1c1cc(C2(O)CC3CCC(C2)O3)c2cnn(-c3ccn[nH]3)c2n1 (stereo unspecified) + COC1C(OC(N)=O)C(O)C(Oc2ccc3c(O)c(NC(=O)c4ccc(O)c(CC=C(C)C)c4)c(=O)oc3c2C)OC1(C)C , thanks.
Result :: 0.102 µM

Query :: Look at this compound and give its reported IC50. CCc1cc2c(N3CCc4c(cc(Cn5ccnc5)cc4-c4cn(C)nc4C(F)(F)F)C3=O)cc(C)nc2c(OC)n1 + Nc1ccc(C#CCN(C(=O)Cc2ncc(C(F)(F)F)cc2C(F)(F)F)c2ccc(F)cc2)nn1
Result :: > 10 µM

Query :: Item under review: O=c1[nH]cc(F)c(=O)[nH]1 + COC1C(OC(N)=O)C(O)C(Oc2ccc3c(O)c(NC(=O)c4ccc(O)c(CC=C(C)C)c4)c(=O)oc3c2C)OC1(C)C . Reported IC50?
Result :: > 10 µM

Query :: Recorded IC50 of CCc1c2c(nc3ccc(O)cc13)-c1cc3c(c(=O)n1C2)COC(=O)[C@]3(O)CC + Cc1cccc(N(C)C(=O)C2C(O)CCN2c2nc(C)cc(C(F)(F)F)c2C#N)c1 , please.
Result :: 0.101 µM

Query :: Requested field: IC50. Item: O=C(c1cc(Cc2n[nH]c(=O)c3ccccc23)ccc1F)N1CCN(C(=O)C2CC2)CC1 + COC1C(OC(N)=O)C(O)C(Oc2ccc3c(O)c(NC(=O)c4ccc(O)c(CC=C(C)C)c4)c(=O)oc3c2C)OC1(C)C
Result :: > 10 µM

Query :: I'd like to know its IC50. The compound in question is COc1cc(C2c3cc4c(cc3C(OC3OC5COC(C)OC5C(O)C3O)C3COC(=O)C23)OCO4)cc(OC)c1O (stereo unspecified) + COC1C(OC(N)=O)C(O)C(Oc2ccc3c(O)c(NC(=O)c4ccc(O)c(CC=C(C)C)c4)c(=O)oc3c2C)OC1(C)C
Result :: > 10 µM

Query :: Which IC50 value is on record for Nc1ccn(C2OC(CO)C(O)C2(F)F)c(=O)n1 (stereo unspecified) + Nc1ccc(C#CCN(C(=O)Cc2ncc(C(F)(F)F)cc2C(F)(F)F)c2ccc(F)cc2)nn1 ?
Result :: < 0.0316 µM
